These measurements were taken from patent US20240425606A1.

- studySystem: T1, hIL-1 IR (Homo sapiens, UniProt Q14626)
- T1 sequence (Q14626 23-422): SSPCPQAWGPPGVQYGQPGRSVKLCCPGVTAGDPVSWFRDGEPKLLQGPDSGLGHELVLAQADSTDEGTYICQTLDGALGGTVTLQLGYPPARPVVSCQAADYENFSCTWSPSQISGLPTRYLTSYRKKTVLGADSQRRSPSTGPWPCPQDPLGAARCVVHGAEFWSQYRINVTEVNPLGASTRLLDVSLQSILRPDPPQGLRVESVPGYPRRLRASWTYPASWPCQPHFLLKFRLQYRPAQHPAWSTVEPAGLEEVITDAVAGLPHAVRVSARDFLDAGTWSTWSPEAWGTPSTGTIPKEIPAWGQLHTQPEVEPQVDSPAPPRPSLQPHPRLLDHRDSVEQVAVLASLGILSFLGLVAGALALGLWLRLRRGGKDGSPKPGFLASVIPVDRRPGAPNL
- experiment: Alternate biolayer interferometry assay (AHC biosensors) ranking mAbs 16-32 against mAb5
- Type: binding
- protocolConditions: compared to mAb5
readoutKind: qualitative assessment

Known results for molecules:
{"molecule": "mAb25: anti-IL-11Rα antibody; VH SEQ ID NO: 241, VL SEQ ID NO: 242; heavy chain Kabat position 31 variant of mAb5 (antibody, V domains shown, mAb25 VH Chain; mAb25 VL Chain, anti-IL-11Rα antibody; heavy chain Kabat position 31 variant of mAb5) VH: EVQLLESGGGLVQPGGSLRLSCAASGFTFSMYSMTWVRQAPGKGLEWVSSIVPYGDLTQYADSVKGRFTISRDNSKNTLYLQMNSLRAEDTAVYYCAKGPGWGSFDLWGRGTLVTVSS VL: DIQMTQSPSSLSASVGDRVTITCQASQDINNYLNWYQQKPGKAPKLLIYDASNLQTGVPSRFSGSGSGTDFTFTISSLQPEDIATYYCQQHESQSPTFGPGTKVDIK", "qualitative assessment": "similar"}
{"molecule": "mAb26: anti-IL-11Rα antibody; VH SEQ ID NO: 243, VL SEQ ID NO: 244; heavy chain Kabat position 31 variant of mAb5 (antibody, V domains shown, mAb23 VH Chain; mAb26 VL Chaim, anti-IL-11Rα antibody; heavy chain Kabat position 31 variant of mAb5) VH: EVQLLESGGGLVQPGGSLRLSCAASGFTFSNYSMTWVRQAPGKGLEWVSSIVPYGDLTQYADSVKGRFTISRDNSKNTLYLQMNSLRAEDTAVYYCAKGPGWGSFDLWGRGTLVTVSS VL: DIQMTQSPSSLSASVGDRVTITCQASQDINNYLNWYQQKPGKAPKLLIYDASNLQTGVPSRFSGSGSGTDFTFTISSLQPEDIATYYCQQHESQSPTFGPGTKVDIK", "qualitative assessment": "decreased"}
{"molecule": "mAb19: anti-IL-11Rα antibody; VH SEQ ID NO: 229, VL SEQ ID NO: 230; heavy chain Kabat position 31 variant of mAb5 (antibody, V domains shown, mAb19 VH Chain; mAb19 VL Chain, anti-IL-11Rα antibody; heavy chain Kabat position 31 variant of mAb5) VH: EVQLLESGGGLVQPGGSLRLSCAASGFTFSFYSMTWVRQAPGKGLEWVSSIVPYGDLTQYADSVKGRFTISRDNSKNTLYLQMNSLRAEDTAVYYCAKGPGWGSFDLWGRGTLVTVSS VL: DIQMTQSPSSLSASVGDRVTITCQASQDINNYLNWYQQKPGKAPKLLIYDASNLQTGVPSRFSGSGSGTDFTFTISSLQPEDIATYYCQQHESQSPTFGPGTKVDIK", "qualitative assessment": "similar"}
{"molecule": "mAb24: anti-IL-11Rα antibody; VH SEQ ID NO: 239, VL SEQ ID NO: 240; heavy chain Kabat position 31 variant of mAb5 (antibody, V domains shown, mAb24 VH Chain; mAb24 VL Chain, anti-IL-11Rα antibody; heavy chain Kabat position 31 variant of mAb5) VH: EVQLLESGGGLVQPGGSLRLSCAASGFTFSLYSMTWVRQAPGKGLEWVSSIVPYGDLTQYADSVKGRFTISRDNSKNTLYLQMNSLRAEDTAVYYCAKGPGWGSFDLWGRGTLVTVSS VL: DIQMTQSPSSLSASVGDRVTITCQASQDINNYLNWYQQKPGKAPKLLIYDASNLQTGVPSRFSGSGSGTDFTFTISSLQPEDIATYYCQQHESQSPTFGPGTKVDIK", "qualitative assessment": "similar"}
{"molecule": "mAb17: anti-IL-11Rα antibody; VH SEQ ID NO: 225, VL SEQ ID NO: 226; heavy chain Kabat position 31 variant of mAb5 (antibody, V domains shown, mAb17 VH Chain; mAb17 VL Chain, anti-IL-11Rα antibody; heavy chain Kabat position 31 variant of mAb5) VH: EVQLLESGGGLVQPGGSLRLSCAASGFTFSDYSMTWVRQAPGKGLEWVSSIVPYGDLTQYADSVKGRFTISRDNSKNTLYLQMNSLRAEDTAVYYCAKGPGWGSFDLWGRGTLVTVSS VL: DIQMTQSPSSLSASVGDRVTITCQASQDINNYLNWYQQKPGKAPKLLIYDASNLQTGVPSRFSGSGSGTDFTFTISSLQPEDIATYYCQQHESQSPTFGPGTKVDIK", "qualitative assessment": "decreased"}

Could you now consider this next molecule?
Task item: Please report qualitative assessment for the following molecule: mAb32: anti-IL-11Rα antibody; VH SEQ ID NO: 255, VL SEQ ID NO: 256; heavy chain Kabat position 31 variant of mAb5 (antibody, V domains shown, mAb32 VH Chain; mAb32 VL Chain, anti-IL-11Rα antibody; heavy chain Kabat position 31 variant of mAb5) VH: EVQLLESGGGLVQPGGSLRLSCAASGFTFSYYSMTWVRQAPGKGLEWVSSIVPYGDLTQYADSVKGRFTISRDNSKNTLYLQMNSLRAEDTAVYYCAKGPGWGSFDLWGRGTLVTVSS VL: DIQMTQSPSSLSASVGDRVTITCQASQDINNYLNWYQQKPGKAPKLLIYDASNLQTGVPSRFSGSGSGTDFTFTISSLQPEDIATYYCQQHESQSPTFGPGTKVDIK
Reply: similar
